# system tested: PSD-95 PDZ1 (Homo sapiens, UniProt P78352)
# Construct: PSD-95 PDZ1 (aa 61–151); made in house; host or cells: E. coli One Shot BL21 Star (DE3)
# protocol: FP competition assay, PSD-95 PDZ1 (probe Cy5-KIF1Bα)
# Assay type: binding
# test settings: 25 nM Cy5-KIF1Bα, 10 mM HEPES pH 7.4, 150 mM NaCl, 1% BSA, room temperature, at least 15 min, Ki ± fitting error, read-out: K i PDZ1
Peptide text beside a SMILES is read from it.
One threshold, 600 µM, splits the recorded Ki values: lower ones are 1, equal or higher ones are 0.

INSERT INTO measurements (compound, qualitative_label) VALUES
  ('CC(C)[C@H](NC(=O)[C@H](CC(N)=O)NC(=O)[C@@H](NC(=O)[C@H](C)NC(=O)[C@H](CCC(=O)O)NC(=O)[C@@H](NC(=O)[C@H](Cc1ccccc1)NC(=O)[C@H](CO)NC(=O)[C@H](CC(=O)O)NC(=O)[C@H](CC(N)=O)NC(=O)[C@H](CCCNC(=N)N)NC(=O)[C@H](CC(=O)O)NC(=O)[C@H](CC(=O)O)NC(=O)[C@@H](N)Cc1ccc(O)cc1)[C@@H](C)O)[C@@H](C)O)C(=O)O [Y2] (H-YDDRNDSFTEATNV-OH)', 1),
  ('CC(C)[C@H](NC(=O)[C@H](CS)NC(=O)[C@H](CO)NC(=O)[C@@H](NC(=O)[C@H](CCCCN)NC(=O)[C@H](CCC(=O)O)NC(=O)[C@H](CC(N)=O)NC(=O)[C@@H](NC(=O)CNC(=O)[C@H](CC(=O)O)NC(=O)[C@H](CCCNC(=N)N)NC(=O)[C@H](CC(=O)O)NC(=O)[C@H](CC(=O)O)NC(=O)[C@@H](N)Cc1ccc(O)cc1)C(C)C)C(C)C)C(=O)O [5-HTR2A] (H-YDDRDGVNEKVSCV-OH)', 1),
  ('CC[C@H](C)[C@H](NC(=O)[C@H](CO)NC(=O)[C@@H](NC(=O)[C@H](CCC(N)=O)NC(=O)[C@H](CC(C)C)NC(=O)[C@H](CC(=O)O)NC(=O)CNC(=O)[C@H](CC(N)=O)NC(=O)[C@H](CC(C)C)NC(=O)[C@H](CC(C)C)NC(=O)[C@H](CCCNC(=N)N)NC(=O)[C@H](CC(=O)O)NC(=O)[C@H](CC(=O)O)NC(=O)[C@@H](N)Cc1ccc(O)cc1)[C@@H](C)O)C(=O)O [SSTR2A] (H-YDDRLLNGDLQTSI-OH)', 0),
  ('CC(C)[C@H](NC(=O)[C@H](CCC(N)=O)NC(=O)[C@H](CCCNC(=N)N)NC(=O)[C@H](CC(=O)O)NC(=O)[C@H](CC(=O)O)NC(=O)[C@@H](N)Cc1ccc(O)cc1)C(=O)N1CCC[C@H]1C(=O)N[C@@H](Cc1ccccc1)C(=O)N[C@H](C(=O)N[C@@H](CCCCN)C(=O)N[C@H](C(=O)N[C@H](C(=O)N[C@H](C(=O)N[C@@H](Cc1ccccc1)C(=O)O)[C@@H](C)O)[C@@H](C)O)[C@@H](C)O)[C@@H](C)O [SSTR4 Mouse] (H-YDDRQVPFTKTTTF-OH)', 0),
  ('CC(C)C[C@H](NC(=O)[C@H](CC(C)C)NC(=O)[C@H](CO)NC(=O)[C@H](CC(=O)O)NC(=O)[C@H](CC(N)=O)NC(=O)[C@@H](NC(=O)[C@H](CO)NC(=O)[C@H](CS)NC(=O)[C@H](CC(N)=O)NC(=O)[C@H](CCCNC(=N)N)NC(=O)[C@H](CCCNC(=N)N)NC(=O)[C@H](CC(=O)O)NC(=O)[C@H](CC(=O)O)NC(=O)[C@@H](N)Cc1ccc(O)cc1)[C@@H](C)O)C(=O)O [β2AR] (H-YDDRRNCSTNDSLL-OH)', 0),
  ('CC[C@H](C)[C@H](NC(=O)[C@H](CCCNC(=N)N)NC(=O)[C@H](CO)NC(=O)[C@H](C)NC(=O)[C@H](CS)NC(=O)[C@@H](NC(=O)CNC(=O)[C@H](CCCNC(=N)N)NC(=O)[C@H](CC(=O)O)NC(=O)[C@H](CC(=O)O)NC(=O)[C@@H](N)Cc1ccc(O)cc1)[C@@H](C)O)C(=O)N[C@@H](CO)C(=O)N[C@H](C(=O)N[C@@H](CC(C)C)C(=O)O)[C@@H](C)O [SSTR1 Mouse] (H-YDDRGTCASRISTL-OH)', 1),
  ('CC(C)[C@H](NC(=O)[C@H](CCCCN)NC(=O)[C@H](CO)NC(=O)[C@H](CCC(=O)O)NC(=O)[C@H](CO)NC(=O)[C@H](C)NC(=O)[C@H](Cc1ccccc1)NC(=O)CNC(=O)[C@@H]1CCCN1C(=O)[C@H](CCCNC(=N)N)NC(=O)[C@H](CCCNC(=N)N)NC(=O)[C@H](CC(=O)O)NC(=O)[C@H](CC(=O)O)NC(=O)[C@@H](N)Cc1ccc(O)cc1)C(=O)O [β1AR] (H-YDDRRPGFASESKV-OH)', 1),
  ('CC[C@H](C)[C@H](NC(=O)[C@H](CCCNC(=N)N)NC(=O)[C@H](CCCNC(=N)N)NC(=O)[C@H](CC(=O)O)NC(=O)[C@H](CC(=O)O)NC(=O)[C@@H](N)Cc1ccc(O)cc1)C(=O)N1CCC[C@H]1C(=O)N[C@@H](CC(C)C)C(=O)N[C@H](C(=O)N[C@@H](CCCNC(=N)N)C(=O)N[C@H](C(=O)N[C@H](C(=O)N[C@H](C(=O)N[C@@H](Cc1ccccc1)C(=O)O)[C@@H](C)O)[C@@H](C)O)[C@@H](C)O)[C@@H](C)O [SSTR4 Human] (H-YDDRRIPLTRTTTF-OH)', 0);

Reference source for all entries: paper PMC3653948
